# System: Histamine-induced anaphylactoid reactions
# EXPERIMENT NOTES: Inhibition of anaphylactoid cutaneous reaction induced by histamine
# Format: in vivo, rat (Sprague-Dawley)
# MEASUREMENT SETUP: Rattus norvegicus, 1 h; rats, 2 × 10^-5 mol/kg p.o., one hour before challenge; histamine intradermal
Recorded inhibition in vivo at 20 µmol/kg, one value per entry.
MEASUREMENT KIND: inhibition in vivo at 20 µmol/kg (%)

COMPOUND | MEASUREMENT KIND | REPORTED VALUE
Cc1ccnc(N2CCN(CCc3c(C)n4c5c(cccc35)S(=O)(=O)CC4)CC2)c1 [Example 28b] | inhibition in vivo at 20 µmol/kg | 85
Cc1c(CCN2CCC(C(=O)c3ccccc3)CC2)c2cccc3c2n1CCC3C (centres unmarked) | inhibition in vivo at 20 µmol/kg | 50
CCCCC1CCc2cc(C(=O)C(C)C)cc3c(CCN4CCN(c5cc(C)ccn5)CC4)c(C)n1c23 (centres unmarked) | inhibition in vivo at 20 µmol/kg | 95
C=CCCC1CCc2cccc3c(CCN4CCN(c5cc(C)ccn5)CC4)c(C)n1c23 (centres unmarked) | inhibition in vivo at 20 µmol/kg | 95
Cc1ccnc(N2CCN(CCc3c(C)n4c5c(cccc35)C(C)CC4)CC2)c1 (centres unmarked) | inhibition in vivo at 20 µmol/kg | 95
CCc1c(CCN2CCN(c3cc(C)ccn3)CC2)c2cccc3c2n1CCC3 | inhibition in vivo at 20 µmol/kg | 65
Cc1ccnc(N2CCN(CCc3c(C)n4c5c(ccc(C(O)C(C)C)c35)SCC4)CC2)c1 (centres unmarked) | inhibition in vivo at 20 µmol/kg | 77
Cc1ccnc(N2CCN(CCc3c(C)n4c5c(ccc(C(=O)C(C)C)c35)SCC4)CC2)c1 | inhibition in vivo at 20 µmol/kg | 87
CC(C)=Cc1cc2c3c(c1)c(CCN1CCN(c4cc(C)ccn4)CC1)c(C)n3CCC2 | inhibition in vivo at 20 µmol/kg | 90
Cc1ccnc(N2CCN(CCc3cn4c5c(cccc35)CCC4)CC2)c1 | inhibition in vivo at 20 µmol/kg | 68
Cc1ccnc(N2CCN(CCc3c(C)n4c5c(cccc35)SCC4)CC2)c1 | inhibition in vivo at 20 µmol/kg | 93
